Target: human orexin-2 receptor (Homo sapiens (Human), UniProt O43614)
Sequence (O43614 whole entry): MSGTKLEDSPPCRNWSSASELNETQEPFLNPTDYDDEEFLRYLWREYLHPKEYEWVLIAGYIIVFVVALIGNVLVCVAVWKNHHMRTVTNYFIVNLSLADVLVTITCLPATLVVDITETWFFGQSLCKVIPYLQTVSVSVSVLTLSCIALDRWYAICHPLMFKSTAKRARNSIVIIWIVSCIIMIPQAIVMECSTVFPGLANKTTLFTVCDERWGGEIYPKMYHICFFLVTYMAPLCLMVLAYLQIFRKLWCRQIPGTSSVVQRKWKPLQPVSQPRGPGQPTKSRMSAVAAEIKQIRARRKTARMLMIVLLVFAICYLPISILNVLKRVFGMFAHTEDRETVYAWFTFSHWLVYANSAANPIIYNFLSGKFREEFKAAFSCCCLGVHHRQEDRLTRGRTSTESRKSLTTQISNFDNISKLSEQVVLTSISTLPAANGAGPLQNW
Assay: In vitro assay: intracellular calcium measurements (FLIPR), antagonistic activity
Type: cell-based
Conditions: CHO cells, 3 nM orexin-A, compound incubation 120 min; marked values are geometric means of n = 2-6; read-out: IC50 OX2
Reported IC50 values follow for various compounds
MEASURE_NAME: IC50 (nM)

COc1cncc(OC)c1C1CCCC(=O)N1Cc1ccc2oc3ccccc3c2c1 (centres unmarked)    1
CCOc1cccc(F)c1C1CC(C)C(=O)N1Cc1ccnc(-n2cccn2)c1 (centres unmarked)    9
COc1cccc(OC)c1C1CCCC(=O)N1Cc1cccc(-n2cccn2)c1 (centres unmarked)    26
COc1cccc(OC)c1C1CCCC(=O)N1Cc1cccc(-c2noc(C)n2)c1 (centres unmarked)    50
COc1ccnc(OC)c1C1CC(C)C(=O)N1Cc1cccc(-c2nc(Cl)cs2)c1 (centres unmarked)    103
COc1cccc(OC)c1C1CCCCC(=O)N1Cc1cnc2ccccc2c1 (centres unmarked)    1040
COc1cccc(OC)c1C1CCCC(=O)N1Cc1cccc(-n2cncn2)c1 (centres unmarked)    471
CCOc1cccc(F)c1[C@@H]1C[C@H](F)C(=O)N1Cc1ccc(OC(F)(F)F)cc1 (racemic)    8
COc1cccc(OC)c1C1CCCCC(=O)N1Cc1cccc(-c2ncc(C)s2)c1 (centres unmarked)    3
COc1cccc(F)c1C1CC(C)C(=O)N1Cc1ccnc(-c2ncc(C)s2)c1 (centres unmarked)    12
CCOc1c(F)cccc1[C@@H]1C[C@@H](O)C(=O)N1Cc1ccc(OC(F)(F)F)cc1 (racemic)    1680
COc1cccc(OC)c1C1CCC(=O)N1Cc1ccnc(-c2ccccc2)c1 (centres unmarked)    121
COc1cncc(OC)c1C1CCCCC(=O)N1Cc1csc(-c2ccccc2)n1 (centres unmarked)    182
Cc1nc(-c2cccc(CN3C(=O)CCCC3c3ccccc3-c3ccccc3)c2)cs1 (centres unmarked)    548
COc1cccc(OC)c1C1CCCC(=O)N1Cc1ccnc(-c2ccccn2)c1 (centres unmarked)    119
COc1cccc(Cl)c1[C@@H]1C[C@H](Cl)C(=O)N1Cc1ccc(OC(F)(F)F)cc1 (racemic)    108
COc1cccc(OC)c1C1CC(C)C(=O)N1Cc1ccc(OC(F)(F)C(F)F)cc1 (centres unmarked)    124

* * *

Target: human orexin-1 receptor (Homo sapiens (Human), UniProt O43613)
Sequence (O43613 whole entry): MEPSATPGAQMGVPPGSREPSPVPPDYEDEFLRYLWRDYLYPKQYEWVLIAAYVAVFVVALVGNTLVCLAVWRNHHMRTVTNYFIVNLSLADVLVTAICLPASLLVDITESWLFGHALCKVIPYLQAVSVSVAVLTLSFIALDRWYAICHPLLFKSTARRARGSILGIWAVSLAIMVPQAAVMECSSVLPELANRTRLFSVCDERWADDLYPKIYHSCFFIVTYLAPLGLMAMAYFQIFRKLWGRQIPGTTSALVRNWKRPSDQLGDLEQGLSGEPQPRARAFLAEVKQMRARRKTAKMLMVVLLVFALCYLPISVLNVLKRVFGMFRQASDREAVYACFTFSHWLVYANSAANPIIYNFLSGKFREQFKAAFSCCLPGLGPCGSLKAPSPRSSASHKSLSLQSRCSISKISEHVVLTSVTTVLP
Assay: In vitro assay: intracellular calcium measurements (FLIPR), antagonistic activity
Assay type: cell-based
Conditions: CHO cells, 3 nM orexin-A, compound incubation 120 min; marked values are geometric means of n = 2-6; read-out: IC50 OX1
Reported IC50 values follow for various compounds
MEASURE_NAME: IC50 (nM)

COc1cccc(OC)c1C1CCC(=O)N1Cc1cccc(-c2csc(C)n2)c1 (centres unmarked) [Example 125]    11
COc1cccc(OC)c1C1CCCC(=O)N1Cc1ccc2ncccc2c1 (centres unmarked) [Example 3]    154
COc1cccc(OC)c1C1CCCC(=O)N1Cc1cccc2ccccc12 (centres unmarked) [Example 15]    210
COc1cccc(OC)c1C1CCCC(=O)N1Cc1cccc(-c2ncccn2)c1 (centres unmarked) [Example 29]    14
COc1cccc(OC)c1C1CCCC(=O)N1Cc1ccc2sc(C)nc2c1 (centres unmarked) [Example 2]    26
COc1cccc(OC)c1[C@@H]1C[C@@H](F)C(=O)N1Cc1ccc2oc3ccccc3c2c1 (racemic) [Example 368]    23
COc1cccc(OC)c1C1CCCCC(=O)N1Cc1ccc2c(c1)c1ccccc1n2C (centres unmarked) [Example 86]    45
COc1ccc(Cl)c(OC)c1[C@@H]1C[C@H](F)C(=O)N1Cc1ccc(OC(F)(F)F)cc1 (racemic) [Example 319]    971

* * *

Biological target: human orexin-1 receptor (Homo sapiens (Human))
Experiment: In vitro assay: intracellular calcium measurements (FLIPR), antagonistic activity
Assay type: cell-based
Details: CHO cells, 3 nM orexin-A, compound incubation 120 min; marked values are geometric means of n = 2-6; read-out: IC50 OX1
Using IC50 as the sorting value, the categories are bin 0 (below 100 nM), bin 1 (100 nM to below 400 nM), bin 2 (400 nM or more)

CCOc1cc(F)ccc1[C@@H]1C[C@H](Cl)C(=O)N1Cc1ccc(OC(F)(F)F)cc1 (racemic) [Example 345]    bin 2
O=C1CCCC(c2cccc3c2OCCO3)N1Cc1cccc(-c2ccccc2)c1 (centres unmarked) [Example 273]    bin 2
COc1cccc(OC)c1C1CCCC(=O)N1Cc1csc(C)n1 (centres unmarked) [Example 71]    bin 2
O=C1CCCCC(c2ccccc2-c2cscn2)N1Cc1cccc(-c2nccs2)c1 (centres unmarked) [Example 452]    bin 1
COc1ccc(F)c(OC)c1[C@@H]1C[C@H](F)C(=O)N1Cc1ccc(OC(F)(F)F)cc1 (racemic) [Example 332]    bin 2
COc1cccc(OC)c1C1CCCCC(=O)N1Cc1ccc(Oc2ccccc2)cc1 (centres unmarked) [Example 73]    bin 1
COc1ccc2c(c1C1CCCC(=O)N1Cc1cccc(Oc3ccccc3)c1)OCO2 (centres unmarked) [Example 458]    bin 1
COc1cccc(OC)c1C1CCC(=O)N1Cc1ccnc(-c2ccccc2)c1 (centres unmarked) [Example 120]    bin 0
COc1cccc(OC)c1C1CCCC(=O)N1Cc1nc2ccccc2s1 (centres unmarked) [Example 31]    bin 2
O=C1[C@H](O)C[C@@H](c2c(F)cccc2OCCF)N1Cc1ccc(OC(F)(F)F)cc1 (racemic) [Example 432]    bin 2
COc1cccc(OC)c1C1CC(C)C(=O)N1Cc1ccc(OC(F)F)cc1 (centres unmarked) [Example 402]    bin 1
COc1ccc2ncoc2c1C1CCCC(=O)N1Cc1ccc2ccccc2n1 (centres unmarked) [Example 280]    bin 2
COc1cccc(OC)c1C1CC(C)C(=O)N1Cc1cccc(-c2nccs2)c1 (centres unmarked) [Example 132]    bin 0
CCOc1cccc(F)c1C1CC(C)C(=O)N1Cc1ccc2ccccc2n1 (centres unmarked) [Example 379]    bin 2
COc1c(F)ccc(F)c1[C@@H]1C[C@@H](Cl)C(=O)N1Cc1ccc(OC(F)(F)F)cc1 (racemic) [Example 317]    bin 2
COc1ccnc(OC)c1C1CCCC(=O)N1Cc1cccc(-c2ccccn2)c1 (centres unmarked) [Example 55]    bin 0
COc1cccc(OC)c1C1CCCCC(=O)N1Cc1cccc(-c2ccccc2)n1 (centres unmarked) [Example 82]    bin 0
COc1cccc(OC)c1C1CC(C)C(=O)N1Cc1ccc(OCC(F)(F)F)cc1 (centres unmarked) [Example 418]    bin 2
COc1cncc(OC)c1C1CCCCC(=O)N1Cc1ccc2c(c1)c1ccccc1n2C (centres unmarked) [Example 276]    bin 1
COc1cccc(OC)c1C1CC(C)C(=O)N1Cc1cccc(-c2cncs2)c1 (centres unmarked) [Example 147]    bin 0
COc1ccc2nc(C)oc2c1C1CCCC(=O)N1Cc1cccc(-c2csc(C)n2)c1 (centres unmarked) [Example 441]    bin 0
COc1ccnc(OC)c1C1CCCC(=O)N1Cc1csc(-c2ccccc2)n1 (centres unmarked) [Example 56]    bin 1
COc1ccnc(OC)c1C1CC(C)C(=O)N1Cc1csc(-c2ccc(C)cc2)n1 (centres unmarked) [Example 350]    bin 2
COc1cccc(F)c1C1CC(F)(F)C(=O)N1Cc1ccc2oc3ccccc3c2c1 (centres unmarked) [Example 410]    bin 1
COc1cccc(OC)c1C1CCCC(=O)N1Cc1ccc2oc(C)nc2c1 (centres unmarked) [Example 249]    bin 1
COc1cccc(OC)c1C1CCC(=O)N1Cc1cccc(N2CCCCC2)c1 (centres unmarked) [Example 129]    bin 1
COc1cccc(OC)c1C1CCCCC(=O)N1Cc1cccc(-c2ccccc2)c1 (centres unmarked) [Example 72]    bin 0
COc1cccc(OC)c1C1CCCC(=O)N1Cc1csc(Oc2ccccc2)n1 (centres unmarked) [Example 278]    bin 1
COc1cccc(OC)c1C1CC(C)C(=O)N1Cc1cccc(N2CCCCC2)c1 (centres unmarked) [Example 134]    bin 0
CCOc1cccc(F)c1C1CC(C)C(=O)N1Cc1ccc2oc3ccccc3c2c1 (centres unmarked) [Example 382]    bin 0
COc1cccc(OC)c1C1CC(C)C(=O)N1Cc1cnc2ccccc2c1 (centres unmarked) [Example 347]    bin 2
COc1ncnc(OC)c1C1CCCC(=O)N1Cc1cccc(-c2ccccc2)c1 (centres unmarked) [Example 270]    bin 2
COc1cccc(OC)c1C1CCCC(=O)N1Cc1cccc(-c2noc(C)n2)c1 (centres unmarked) [Example 33]    bin 0
COc1cccc(OC)c1C1CCCCC(=O)N1Cc1ccccc1-c1ccccc1 (centres unmarked) [Example 78]    bin 1
COc1cccc(OC)c1C1CCCCC(=O)N1Cc1cccc(-c2cccnc2)c1 (centres unmarked) [Example 87]    bin 0

* * *

Target: human orexin-2 receptor (Homo sapiens (Human), UniProt O43614)
Assay: In vitro assay: intracellular calcium measurements (FLIPR), antagonistic activity
Type: cell-based
Conditions: CHO cells, 3 nM orexin-A, compound incubation time of 10 min; marked values are geometric means of n = 2-6; read-out: IC50 OX2
MEASURE_NAME: IC50

COc1cccc(OC)c1[C@@H]1C[C@@H](OC)C(=O)N1Cc1ccc(OC(F)(F)F)cc1 (racemic)    6940 nM
COc1cccc(OC)c1C1CCCC(=O)N1Cc1cccc(OC(F)(F)F)c1 (stereo not drawn)    94 nM
COc1cccc(OC)c1C1CCCC(=O)N1Cc1ccc(Oc2ccccc2)cc1 (stereo not drawn)    27 nM
COc1cccc(OC)c1C1CCCC(=O)N1Cc1cc2ccccc2n1C (stereo not drawn)    41 nM
COc1cccc(OC)c1C1CCCC(=O)N1C(C)c1cnc(OC(F)F)c(Cl)c1 (stereo not drawn)    34 nM
CCC(c1ccc(OC(F)(F)F)cc1)N1C(=O)C(C)CC1c1c(OC)cccc1OC (stereo not drawn)    1170 nM
COc1cccc(OC)c1C1CCCC(=O)N1Cc1ccc(OC(F)F)cc1 (stereo not drawn)    31 nM
COc1cccc(OC)c1C1CCCC(=O)N1Cc1ccc(OC(F)(F)F)c(F)c1 (stereo not drawn)    18 nM
COc1cccc(OC)c1C1CCCC(=O)N1Cc1ccc(Cl)cc1 (stereo not drawn)    154 nM
COc1cccc(OC)c1C1CCCC(=O)N1Cc1cc(OC(F)F)ccn1 (stereo not drawn)    484 nM
COc1cccc(OC)c1C1CCCC(=O)N1Cc1ccc(OCC(F)(F)F)cc1 (stereo not drawn)    11 nM
COCCOc1cccc(OC)c1C1CCCC(=O)N1Cc1ccc(OC(F)(F)F)cc1 (stereo not drawn)    664 nM
COc1cccc(OC)c1C1CCCC(=O)N1Cc1ccc(SC(F)(F)F)cc1 (stereo not drawn)    62 nM
COc1cccc(OC)c1C1CCCC(=O)N1Cc1ccc2c(c1)CCCN2 (stereo not drawn)    596 nM
COc1cccc(OC)c1[C@@H]1C[C@H](OC)C(=O)N1Cc1ccc(OC(F)(F)F)cc1 (racemic)    168 nM
COc1cccc(OC)c1C1CCC(C)(C)C(=O)N1Cc1ccc(OC(F)(F)F)cc1 (stereo not drawn)    1290 nM
COc1cccc(OC)c1C1CC(C)C(=O)N1Cc1cccc(OC(F)F)c1 (stereo not drawn)    96 nM
COc1cccc(OC)c1C1CCCC(=O)N1Cc1ccccc1Oc1ccccc1 (stereo not drawn)    50 nM
